B1: PPEF2 (parent)
chain: DHSGFISLDEFRQTWKLFSSHMNI

Variants of: B1
Experiment: protein stability index of a GFP-peptide fusion (GPS, HEK-293T) (PSI 1-6); higher = more stable;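 also: lentivirally expressed fusions sorted by FACS into six bins by GFP to DsRed ratio, PSI derived from sequencing read proportions per bin multiplied by bin number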
Conditions: c terminus: a fixed tail appended
Class label 1: protein stability index at least 2. Class label 0: protein stability index below 2.

q: Is protein stability index at least 2? Consider DHSGFASLDEFRQTWKLFSSHMNI [I6A]
a: label 0

q: Record DHSGFISLDEFRQKWKLFSSHMNI [T14K] ; criterion: protein stability index no lower than 2. Met?
a: label 0

q: Entry DHSGFISLDEFRQTWKKFSSHMNI [L17K] : is its protein stability index no less than 2?
a: label 0

q: Could you please find out whether DHSGFQSLDEFRQTWKLFSSHMNI [I6Q] has protein stability index that meets 2 or exceeds it?
a: label 0

q: Does protein stability index meet or surpass 2 for DHSGFISLDEFRQTWKLFSSHWNI [M22W] ?
a: label 1

q: Threshold query (protein stability index >= 2) on DHSGTISLDEFRQTWKLFSSHMNI [F5T]
a: label 0

q: Does protein stability index meet or surpass 2 for DHSGPISLDEFRQTWKLFSSHMNI [F5P] ?
a: label 1

q: Decide: protein stability index of DHKGFISLDEFRQTWKLFSSHMNI [S3K] >= 2?
a: label 1

q: Is protein stability index at least 2? Consider DHSGFISLDEFRQTWILFSSHMNI [K16I]
a: label 1

q: Can DHSGFISLDEFRQTQKLFSSHMNI [W15Q] be said to have protein stability index at or above 2?
a: label 1

q: Does protein stability index meet or surpass 2 for DHSGFISLKEFRQTWKLFSSHMNI [D9K] ?
a: label 1

q: Given the entry DHSGFISLDEFRQTWALFSSHMNI [K16A] , answer whether its protein stability index meets or surpasses 2.
a: label 0

q: # check: protein stability index of DHSGFISLDEFRQTWKLFSSFMNI [H21F] is greater than or equal to 2
a: label 1

q: # check: protein stability index of DHSGFISLDEFPQTWKLFSSHMNI [R12P] is greater than or equal to 2
a: label 0

q: Please tell me: is the variant DHSGFISLDEFRQTWKLFSSSMNI [H21S] at or over 2 in terms of protein stability index?
a: label 0

q: Assess whether reported protein stability index for DHSGVISLDEFRQTWKLFSSHMNI [F5V] sits at 2 or higher.
a: label 0

q: Quick check: does DPSGFISLDEFRQTWKLFSSHMNI [H2P] have protein stability index greater than or equal to 2?
a: label 1

q: Evaluate DHSRFISLDEFRQTWKLFSSHMNI [G4R] : protein stability index at minimum 2?
a: label 0

q: Given the entry DHSGFISLDEFRQTWKWFSSHMNI [L17W] , answer whether its protein stability index meets or surpasses 2.
a: label 0

q: Check if protein stability index >= 2 (inclusive). Item: DHSGFISLDEFRQIWKLFSSHMNI [T14I]
a: label 0

q: Given DHSGFISLDEFRQTWKLFSSHMSI [N23S] , state whether its protein stability index is at least 2.
a: label 1

Value source: the supplement of paper PMC10567573
